GI50 values by entry
Tested on: NCI-H460
Assay: NCI tumour cell line growth inhibition, 48 h
Calls of active or inactive are those of the source. Rule as the data show it: active = GI50 up to about 1.1 µM and inactive = higher.
REPORTED_PROPERTY: GI50

[
  {
    "COMPOUND": "O=c1[nH]c2ccccc2cc1C(Cl)=C(Cl)Cl",
    "REPORTED_PROPERTY": "GI50",
    "READING": "> 100 µM (inactive)"
  },
  {
    "COMPOUND": "CCOC(=O)c1cc(-c2ccc(OC)cc2)c([N+](=O)[O-])n1C",
    "REPORTED_PROPERTY": "GI50",
    "READING": "> 10 µM (inactive)"
  },
  {
    "COMPOUND": "CC#CC(O)(C(=O)OC1CC2CCC(C1)N2C)C1CCCC1 (configuration not stated)",
    "REPORTED_PROPERTY": "GI50",
    "READING": "> 100 µM (inactive)"
  },
  {
    "COMPOUND": "CCCN(CCC)c1c([N+](=O)[O-])cc(C(=O)N(C)C)cc1[N+](=O)[O-]",
    "REPORTED_PROPERTY": "GI50",
    "READING": "47.3 µM (inactive)"
  },
  {
    "COMPOUND": "COc1cc2c(c(O)c1C)C(=O)C(Cl)=CC2=O",
    "REPORTED_PROPERTY": "GI50",
    "READING": "24.9 µM (inactive)"
  },
  {
    "COMPOUND": "CCN(CC)CCSc1nc2c(c(=N)n1-c1ccccc1)c(=S)n(-c1ccccc1)c(=S)n2-c1ccccc1",
    "REPORTED_PROPERTY": "GI50",
    "READING": "1.91 µM (inactive)"
  },
  {
    "COMPOUND": "CN(C)c1cccc(F)c1C(=O)NC(=O)Nc1ccc(Cl)cc1",
    "REPORTED_PROPERTY": "GI50",
    "READING": "1.91 µM (inactive)"
  },
  {
    "COMPOUND": "O/N=N/c1ccc(Sc2ccc(/N=N/O)cn2)nc1",
    "REPORTED_PROPERTY": "GI50",
    "READING": "> 100 µM (inactive)"
  },
  {
    "COMPOUND": "O=C(O)c1ccc(C2C(=O)N[C@@H]3CCC[C@H]23)cc1 (some centres not stated)",
    "REPORTED_PROPERTY": "GI50",
    "READING": "> 100 µM (inactive)"
  },
  {
    "COMPOUND": "O=P12N(CCN1c1ccccc1)CCN2c1ccccc1",
    "REPORTED_PROPERTY": "GI50",
    "READING": "> 100 µM (inactive)"
  },
  {
    "COMPOUND": "CCOC(=O)Cc1nc(/C(C#N)=C/c2ccco2)[nH]c(=O)c1C#N",
    "REPORTED_PROPERTY": "GI50",
    "READING": "> 100 µM (inactive)"
  },
  {
    "COMPOUND": "COc1ccc(/C=N/n2c(Cc3ccccc3)n[nH]c2=O)cc1",
    "REPORTED_PROPERTY": "GI50",
    "READING": "> 100 µM (inactive)"
  }
]
